Experiment: self-splicing fitness, log relative to wild type (ln ratio); higher = more splicing; Tetrahymena group I intron in knt gene, E. coli kanamycin selection, DiMSum; sequences stand for … in CUCUCU…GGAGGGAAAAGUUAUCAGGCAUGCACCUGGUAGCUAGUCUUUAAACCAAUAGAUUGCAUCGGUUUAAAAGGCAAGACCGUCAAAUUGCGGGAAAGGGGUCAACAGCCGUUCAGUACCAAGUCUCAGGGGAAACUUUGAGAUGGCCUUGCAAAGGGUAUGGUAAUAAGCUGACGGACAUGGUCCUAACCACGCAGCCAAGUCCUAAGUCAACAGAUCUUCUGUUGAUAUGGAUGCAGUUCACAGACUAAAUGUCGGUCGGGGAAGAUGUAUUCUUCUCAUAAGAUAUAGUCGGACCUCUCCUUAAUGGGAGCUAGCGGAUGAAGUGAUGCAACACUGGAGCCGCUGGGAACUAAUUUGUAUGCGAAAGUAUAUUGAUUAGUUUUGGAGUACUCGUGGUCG;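 also: selection with 25 µg/mL kanamycin versus none on LB agar overnight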
Settings: 37 °C
# self-splicing fitness (ln) >= -0.9 gives Satisfied, anything below gives Not satisfied

Problem: Determine whether measured self-splicing fitness (ln) meets or exceeds -0.9 for CCUGAGCAAUAUUACGCGCU
Solution: Not satisfied

Problem: Determine whether measured self-splicing fitness (ln) meets or exceeds -0.9 for UAGAAGCAAUAUUACGGAUU
Solution: Not satisfied

Problem: Determine whether measured self-splicing fitness (ln) meets or exceeds -0.9 for GUUGAGCAAUAUUACGUAUG
Solution: Not satisfied

Problem: Determine whether measured self-splicing fitness (ln) meets or exceeds -0.9 for CAUCAGCAAUAUUACGAUGA
Solution: Satisfied

Problem: Determine whether measured self-splicing fitness (ln) meets or exceeds -0.9 for GAAGAGCAAUAUUACGGUGA
Solution: Not satisfied

Problem: Determine whether measured self-splicing fitness (ln) meets or exceeds -0.9 for AGACAGCAAUAUUACGGGGG
Solution: Not satisfied

Problem: Determine whether measured self-splicing fitness (ln) meets or exceeds -0.9 for CGAGAGCAAUAUUACGCUUA
Solution: Not satisfied

Problem: Determine whether measured self-splicing fitness (ln) meets or exceeds -0.9 for ACCUAGCAAUAUUACGUUUG
Solution: Not satisfied

Problem: Determine whether measured self-splicing fitness (ln) meets or exceeds -0.9 for UAGUAGCAAUAUUACGAUCA
Solution: Satisfied

Problem: Determine whether measured self-splicing fitness (ln) meets or exceeds -0.9 for AGAGAGCAAUAUUACGCAUA
Solution: Not satisfied

Problem: Determine whether measured self-splicing fitness (ln) meets or exceeds -0.9 for AUUCAGCAAUAUUACGGUGC
Solution: Satisfied

Problem: Determine whether measured self-splicing fitness (ln) meets or exceeds -0.9 for AGUGAGCAAUAUUACGUUUC
Solution: Not satisfied

Problem: Determine whether measured self-splicing fitness (ln) meets or exceeds -0.9 for AGUUAGCAAUAUUACGCACA
Solution: Satisfied

Problem: Determine whether measured self-splicing fitness (ln) meets or exceeds -0.9 for UACAAGCAAUAUUACGCAGA
Solution: Not satisfied

Problem: Determine whether measured self-splicing fitness (ln) meets or exceeds -0.9 for AGAGAGCAAUAUUACGUCUA
Solution: Satisfied

Problem: Determine whether measured self-splicing fitness (ln) meets or exceeds -0.9 for UCAUAGCAAUAUUACGGGUG
Solution: Satisfied

Problem: Determine whether measured self-splicing fitness (ln) meets or exceeds -0.9 for AGACAGCAAUAUUACGUUUA
Solution: Satisfied

Problem: Determine whether measured self-splicing fitness (ln) meets or exceeds -0.9 for ACCAAGCAAUAUUACGUCAG
Solution: Not satisfied

Problem: Determine whether measured self-splicing fitness (ln) meets or exceeds -0.9 for AAAAAGCAAUAUUACGUACU
Solution: Satisfied

Problem: Determine whether measured self-splicing fitness (ln) meets or exceeds -0.9 for AACAAGCAAUAUUACGCGAU
Solution: Not satisfied

Problem: Determine whether measured self-splicing fitness (ln) meets or exceeds -0.9 for GGAUAGCAAUAUUACGGAUA
Solution: Not satisfied

Problem: Determine whether measured self-splicing fitness (ln) meets or exceeds -0.9 for UAUCAGCAAUAUUACGGAGC
Solution: Not satisfied

Problem: Determine whether measured self-splicing fitness (ln) meets or exceeds -0.9 for GAAAAGCAAUAUUACGCGGA
Solution: Satisfied

Problem: Determine whether measured self-splicing fitness (ln) meets or exceeds -0.9 for CGCAAGCAAUAUUACGGCCG
Solution: Satisfied
